# Tested on: Rattus norvegicus
# test_method_notes: Antiinflammatory activity in rat assessed as inhibition of carrageenan-induced paw volume at 20 mg/kg, po administered 1 hr prior to carrageenan challenge measured after 3 hrs (reference value: 1.68 +/- 0.029 ml)
# Format: functional
Binary classification by Activity, with 0.7 mL as an inclusive lower bound for Fulfilled; all other cases are Not fulfilled.

Worked cases, answers included:
structure_as_smiles | qualitative_label
Cc1ccc(-n2cc(COC(=O)/C=C/C=C/c3ccc4c(c3)OCO4)nn2)cc1 | Fulfilled
O=C(/C=C/C=C/c1ccc2c(c1)OCO2)OCc1cn(-c2ccc(F)cc2)nn1 | Fulfilled
CCc1ccc(-n2cc(COC(=O)/C=C/C=C/c3ccc4c(c3)OCO4)nn2)cc1 | Fulfilled

Input line: Is Activity for O=C(/C=C/C=C/c1ccc2c(c1)OCO2)OCc1cn(-c2ccccc2)nn1 at or above 0.7 mL?
Output line: Fulfilled

Input line: Now the same for COc1ccc(-n2cc(COC(=O)/C=C/C=C/c3ccc4c(c3)OCO4)nn2)cc1
Output line: Fulfilled

Input line: How about this molecule: O=C(/C=C/C=C/c1ccc2c(c1)OCO2)OCc1cn(-c2ccccc2Cl)nn1
Output line: Not fulfilled

Input line: Quick one: O=C(/C=C/C=C/c1ccc2c(c1)OCO2)N1CCCCC1
Output line: Not fulfilled

###

# test_method_notes: Cytotoxicity against mouse RAW264.7 cells assessed as cell viability at 20 uM after 24 hrs by MTT assay
# Format: cell-based
# measurement_parameters: read-out: Activity
measure_name: viability at 24 h, 20 µM

Below, 4 molecules whose answers are already recorded.
structure_as_smiles | observed_value
COc1ccc2c(c1)c(CC(=O)O)c(C)n2C(=O)c1ccc(Cl)cc1 | 55%
O=C(/C=C/C=C/c1ccc2c(c1)OCO2)OCc1cn(-c2ccccc2Br)nn1 | 90%
O=C(/C=C/C=C/c1ccc2c(c1)OCO2)OCc1cn(-c2ccc(Cl)c(Cl)c2)nn1 | 90%
O=C(/C=C/C=C/c1ccc2c(c1)OCO2)OCc1cn(-c2ccccc2Cl)nn1 | 90%

Turning now to a further record.
Input line: What value of viability at 24 h, 20 µM has been reported for the following molecule? O=C(/C=C/C=C/c1ccc2c(c1)OCO2)OCc1cn(-c2ccc(Cl)cc2Cl)nn1
Output line: 90%

###

# System: Rattus norvegicus
# test_method_notes: Ulcerogenic effect in Albino Wistar rat assessed as damage in gastric mucosa at 60 mg, po after 5 hrs
# Format: toxicity, organism-based
# measurement_parameters: in vivo
measure_name: Activity

The cases that follow already have their Activity on record.
structure_as_smiles | measure_name | observed_value
O=C(/C=C/C=C/c1ccc2c(c1)OCO2)N1CCCCC1 | Activity | Non-toxic
COc1ccc2c(c1)c(CC(=O)O)c(C)n2C(=O)c1ccc(Cl)cc1 | Activity | Toxic
O=C(/C=C/C=C/c1ccc2c(c1)OCO2)OCc1cn(-c2ccccc2Cl)nn1 | Activity | Non-toxic
O=C(/C=C/C=C/c1ccc2c(c1)OCO2)OCc1cn(-c2ccc(Cl)cc2Cl)nn1 | Activity | Non-toxic
O=C(/C=C/C=C/c1ccc2c(c1)OCO2)OCc1cn(-c2ccc(Cl)c(Cl)c2)nn1 | Activity | Non-toxic

Now let's try a different one.
Input line: Request the reported Activity associated with O=C(/C=C/C=C/c1ccc2c(c1)OCO2)OCc1cn(-c2ccccc2Br)nn1
Output line: Non-toxic

###

# Tested on: Rattus norvegicus
# test_method_notes: Antiinflammatory activity in rat assessed as inhibition of carrageenan-induced paw volume at 20 mg/kg, po administered 1 hr prior to carrageenan challenge measured after 5 hrs (reference value: 1.70 +/- 0.020 ml)
# Format: functional
Mark each entry Condition met if its Activity sits below 0.7 mL, and Condition not met for all others.

Study these solved cases before continuing.
structure_as_smiles | qualitative_label
O=C(/C=C/C=C/c1ccc2c(c1)OCO2)OCc1cn(-c2cccc([N+](=O)[O-])c2)nn1 | Condition not met
CCc1ccc(-n2cc(COC(=O)/C=C/C=C/c3ccc4c(c3)OCO4)nn2)cc1 | Condition not met
O=C(/C=C/C=C/c1ccc2c(c1)OCO2)OCc1cn(-c2ccccc2Br)nn1 | Condition met

Input line: Please state whether Activity is below 0.7 mL for O=C(/C=C/C=C/c1ccc2c(c1)OCO2)OCc1cn(-c2ccccc2F)nn1
Output line: Condition met

Input line: Again, but for O=C(/C=C/C=C/c1ccc2c(c1)OCO2)N1CCCCC1
Output line: Condition met

###

# System: Rattus norvegicus
# test_method_notes: Antiinflammatory activity in rat assessed as inhibition of carrageenan-induced paw volume at 20 mg/kg, po administered 1 hr prior to carrageenan challenge measured after 3 hrs (reference value: 1.68 +/- 0.029 ml)
# Type: functional
The label depends only on Activity: MET if it is at least 0.8 mL, NOT MET if it is smaller.

Examples from the recorded data:
structure_as_smiles | tested_system | qualitative_label
O=C(/C=C/C=C/c1ccc2c(c1)OCO2)OCc1cn(-c2ccc(Cl)cc2Cl)nn1 | Rattus norvegicus | NOT MET
O=C(/C=C/C=C/c1ccc2c(c1)OCO2)OCc1cn(-c2ccccc2F)nn1 | Rattus norvegicus | NOT MET
O=C(/C=C/C=C/c1ccc2c(c1)OCO2)OCc1cn(-c2ccc(Cl)cc2)nn1 | Rattus norvegicus | MET
O=C(/C=C/C=C/c1ccc2c(c1)OCO2)OCc1cn(-c2cccc([N+](=O)[O-])c2)nn1 | Rattus norvegicus | MET
COc1ccccc1-n1cc(COC(=O)/C=C/C=C/c2ccc3c(c2)OCO3)nn1 | Rattus norvegicus | NOT MET

Input line: Identify whether the reported Activity of the following molecule is 0.8 mL or greater: O=C(/C=C/C=C/c1ccc2c(c1)OCO2)OCc1cn(-c2ccccc2Br)nn1
Output line: NOT MET

###

The following compounds are listed with their measured Activity values.
# System: Rattus norvegicus
# test_method_notes: Antiinflammatory activity in rat assessed as inhibition of carrageenan-induced paw volume at 20 mg/kg, po administered 1 hr prior to carrageenan challenge measured after 3 hrs (reference value: 1.68 +/- 0.029 ml)
# Format: functional
The response must be a number in mL with no trailing unit.

structure_as_smiles | Activity [mL]
O=C(/C=C/C=C/c1ccc2c(c1)OCO2)OCc1cn(-c2cccc(Cl)c2)nn1 | 0.71

Input line: So what does the record say about Activity for COc1ccc2c(c1)c(CC(=O)O)c(C)n2C(=O)c1ccc(Cl)cc1 ?
Output line: 0.608

Input line: Quick one: Cc1ccc(-n2cc(COC(=O)/C=C/C=C/c3ccc4c(c3)OCO4)nn2)cc1C
Output line: 0.68

Input line: Now consider O=C(/C=C/C=C/c1ccc2c(c1)OCO2)OCc1cn(-c2ccc(Cl)c(Cl)c2)nn1 and answer again.
Output line: 0.632

Input line: Now the same for CCOc1ccc(-n2cc(COC(=O)/C=C/C=C/c3ccc4c(c3)OCO4)nn2)cc1
Output line: 1.1

###

# Tested on: Rattus norvegicus
# test_method_notes: Antiinflammatory activity in rat assessed as inhibition of carrageenan-induced paw volume at 20 mg/kg, po administered 1 hr prior to carrageenan challenge measured after 5 hrs (reference value: 1.70 +/- 0.020 ml)
# Format: functional
Class definitions on Activity: bin A = under 0.7 mL, bin B = from 0.7 mL up to 0.9 mL, bin C = 0.9 mL and over

These recorded examples may help you get a feel for the data.
compound | qualitative_label
Cc1ccc(-n2cc(COC(=O)/C=C/C=C/c3ccc4c(c3)OCO4)nn2)cc1 | bin C
O=C(/C=C/C=C/c1ccc2c(c1)OCO2)OCc1cn(-c2ccc(Br)cc2)nn1 | bin B
O=C(/C=C/C=C/c1ccc2c(c1)OCO2)OCc1cn(-c2ccc(Cl)cc2Cl)nn1 | bin A
CCOc1ccc(-n2cc(COC(=O)/C=C/C=C/c3ccc4c(c3)OCO4)nn2)cc1 | bin C
O=C(/C=C/C=C/c1ccc2c(c1)OCO2)OCc1cn(-c2ccc(Cl)cc2)nn1 | bin B
O=C(/C=C/C=C/c1ccc2c(c1)OCO2)OCc1cn(-c2ccc([N+](=O)[O-])cc2)nn1 | bin C

Kindly review the next compound as well.
Input line: Assign a bin to O=C(/C=C/C=C/c1ccc2c(c1)OCO2)OCc1cn(-c2ccccc2)nn1
Output line: bin C

###

# Test system: Rattus norvegicus
# test_method_notes: Antiinflammatory activity in rat assessed as inhibition of carrageenan-induced paw volume at 20 mg/kg, po administered 1 hr prior to carrageenan challenge measured after 3 hrs (reference value: 1.68 +/- 0.029 ml)
# Type: functional
measure_name: Activity (mL)
Form entry: value (mL) — number only.

structure_as_smiles | measure_name | uom | observed_value
Cc1ccccc1-n1cc(COC(=O)/C=C/C=C/c2ccc3c(c2)OCO3)nn1 | Activity | mL | 0.91

Input line: Fill blank: measured Activity of the compound O=C(/C=C/C=C/c1ccc2c(c1)OCO2)OCc1cn(-c2ccc(Br)cc2)nn1 is ____.
Output line: 0.89

Input line: Queued: O=C(/C=C/C=C/c1ccc2c(c1)OCO2)OCc1cn(-c2ccc([N+](=O)[O-])cc2)nn1
Output line: 1.39
